Would you mind telling me the reported ED50 of each entry?
system: Staphylococcus aureus; experiment: Antibacterial activity against Staphylococcus aureus RN4220 in fifth-instar silkworm larva infection model assessed as compound concentration per gram of larva […] after 48 hrs post dose at 27 degC; format: functional
Number only, in µg; omit the unit.

Challenge: Form entry - test system: Staphylococcus aureus; read-out: ED50; compound: N[C@@H]1CONC1=O [CYCLOSERINE]
Response given: 40

Challenge: Query ED50 on Staphylococcus aureus for CO[C@@]1(NC(=O)CSC(F)F)C(=O)N2C(C(=O)O)=C(CSc3nnnn3CCO)CO[C@@H]21 [FLOMOXEF]
Response given: 0.054

Challenge: Item: CN(C)[C@@H]1C(O)=C(C(N)=O)C(=O)[C@@]2(O)C(O)=C3C(=O)c4c(O)cccc4[C@@](C)(O)[C@H]3C[C@@H]12 [TETRACYCLINE] Test system: Staphylococcus aureus Read-out: ED50 Value: ?
Response given: 0.68

Challenge: # get_value(readout= ED50, system= Staphylococcus aureus) for CN[C@H](CC(C)C)C(=O)N[C@H]1C(=O)N[C@@H](CC(N)=O)C(=O)N[C@H]2C(=O)N[C@H]3C(=O)N[C@H](C(=O)N[C@H](C(=O)O)c4cc(O)cc(O)c4-c4cc3ccc4O)[C@H](O)c3ccc(c(Cl)c3)Oc3cc2cc(c3O[C@@H]2O[C@H](CO)[C@@H](O)[C@H](O)[C@H]2O[C@H]2C[C@](C)(N)[C@H](O)[C@H](C)O2)Oc2ccc(cc2Cl)[C@H]1O [VANCOMYCIN]
Response given: 0.53

Challenge: What ED50 appears in the records for this compound with Staphylococcus aureus? O=C(N[C@H](CO)[C@H](O)c1ccc([N+](=O)[O-])cc1)C(Cl)Cl [CHLORAMPHENICOL]
Response given: 4.9
